Could you please report measured Ratio for the items listed next?
- Tested on: Mycobacterium tuberculosis
- assayRemarks: Anti-tubercular activity against Mycobacterium tuberculosis H37Rv expressing LuxABCDE assessed as relative luminescence by measuring ratio of RLU (test compound)/RLU(no compound) at 5 uM by luminescence based assay
- Format: functional

Hi there! I need Ratio for each item below, if you can.
1. Oc1ccc2nccc(Nc3ccc(OCc4ccccc4)cc3)c2c1
2. COc1cc2nccc(Nc3ccc(NC(C)=O)cc3)c2cc1OC
3. COc1cc2ncnc(Nc3ccc(OCc4ccccc4)cc3)c2cc1OC
4. COc1cc2nccc(Nc3ccc(OCc4cccc(F)c4)c(Cl)c3)c2cc1OC
5. COc1cc2nccc(Nc3ccc(NC(=O)c4ccc(C)cc4)c(O)c3)c2cc1OC

1: 0.66; 2: 1.11; 3: 0.83; 4: 0.78; 5: 1.13

Please supply Ratio for each of the following items, keeping them in order.
1. COc1cc2ncnc(Nc3cc(OC)c(OC)c(OC)c3)c2cc1OC
2. COc1ccc2c(Nc3ccc(NC(=O)c4ccc(C)cc4)c(O)c3)ccnc2c1
3. COc1ccc2c(Nc3ccc(OCc4ccccc4)cc3)ncnc2c1

[1.03, 1.09, 0.99]

###

- Tested on: Mycobacterium tuberculosis
- assayRemarks: Anti-tubercular activity against Mycobacterium tuberculosis H37Rv expressing LuxABCDE assessed as relative luminescence by measuring ratio of RLU (test compound)/RLU(no compound) at 10 uM by luminescence based assay
- Type: functional
For each entry below, report its Ratio value.
Answers are plain numbers.

Solved entries:
moleculeSmiles: COc1cc2ncnc(Nc3cc(OC)c(OC)c(OC)c3)c2cc1OC
experimentalSystem: Mycobacterium tuberculosis
reportedProperty: Ratio
recordedResult: 1.01
--
moleculeSmiles: Oc1cc2ncnc(Nc3ccc(OCc4ccccc4)cc3)c2cc1O
experimentalSystem: Mycobacterium tuberculosis
reportedProperty: Ratio
recordedResult: 0.76
--
moleculeSmiles: Oc1ccc2c(Nc3ccc(OCc4ccccc4)cc3)ncnc2c1
experimentalSystem: Mycobacterium tuberculosis
reportedProperty: Ratio
recordedResult: 0.88

Your task in this section: give Ratio for each listed record.
1. CS(=O)(=O)CCNCc1ccc(-c2ccc3ncnc(Nc4ccc(OCc5cccc(F)c5)c(Cl)c4)c3c2)o1
2. C#Cc1cccc(Nc2ccnc3cc(OCCOC)c(OCCOC)cc23)c1

0.17
0.79

###

- Tested on: Mycobacterium tuberculosis
- assayRemarks: Anti-tubercular activity against Mycobacterium tuberculosis H37Rv expressing LuxABCDE assessed as relative luminescence by measuring ratio of RLU (test compound)/RLU(no compound) at 10 uM by luminescence based assay
- Assay type: functional
Provide the recorded Ratio for the entries that follow.
Answers are plain numbers.

moleculeSmiles: COc1ccc2c(Nc3ccc(NC(=O)c4ccc(C)cc4)c(O)c3)ccnc2c1
reportedProperty: Ratio
recordedResult: 1.11

moleculeSmiles: Oc1ccc2ncnc(Nc3ccc(OCc4ccc(F)cc4)cc3)c2c1
reportedProperty: Ratio
recordedResult: 0.44

moleculeSmiles: COc1cc2nccc(Nc3ccc(OCc4cccc(F)c4)c(Cl)c3)c2cc1OC
reportedProperty: Ratio
recordedResult: 0.22

moleculeSmiles: COc1ccc2ncnc(Nc3ccc(OCc4ccccc4)cc3)c2c1
reportedProperty: Ratio
recordedResult: 0.83

moleculeSmiles: COc1cc2ncc(C#N)c(Nc3cc(OC)c(OC)c(OC)c3)c2cc1OC
reportedProperty: Ratio
recordedResult: 1.01

moleculeSmiles: COc1ccc2c(Nc3ccc(OCc4ccccc4)cc3)ncnc2c1
reportedProperty: Ratio
recordedResult: 0.87

moleculeSmiles: COc1cc2nccc(Nc3ccc(NC(=O)c4ccc(C(C)(C)C)cc4)c(O)c3)c2cc1OC
reportedProperty: Ratio
recordedResult: 0.72

moleculeSmiles: COc1cc2nccc(Nc3ccc(OCc4ccc(C)cc4)cc3)c2cc1OC
reportedProperty: Ratio
recordedResult: 0.08

Hi! Can you tell me Ratio for each of these compounds?
1. COCCOc1cc2ncnc(Nc3cc(OC)c(OC)c(OC)c3)c2cc1OCCOC
2. COc1cc2nccc(Nc3cccc(Br)c3)c2cc1OC
3. COc1cc2ncnc(Nc3ccc(OCc4ccccc4)cc3)c2cc1OC
4. COc1ccc2nccc(Nc3ccc(NC(=O)c4ccc(C)cc4)c(O)c3)c2c1
5. Oc1ccc2ncnc(Nc3ccc(OCc4ccccc4)cc3)c2c1

1: 0.96; 2: 0.9; 3: 0.77; 4: 1.28; 5: 0.9

###

Would you mind telling me the reported Ratio of each entry?
- Test system: Mycobacterium tuberculosis
- assayRemarks: Anti-tubercular activity against Mycobacterium tuberculosis H37Rv expressing LuxABCDE assessed as relative luminescence by measuring ratio of RLU (test compound)/RLU(no compound) at 5 uM by luminescence based assay
- Assay type: functional
Give bare numbers.

Reference set (5 entries):
molecule: COc1cc2nccc(Nc3cccc(Br)c3)c2cc1OC
Ratio: 1.03
//
molecule: Oc1cc2ncnc(Nc3ccc(OCc4ccccc4)cc3)c2cc1O
Ratio: 0.91
//
molecule: COc1cc2nccc(Nc3ccc(NC(=O)c4ccc(C(C)(C)C)cc4)c(O)c3)c2cc1OC
Ratio: 1.06
//
molecule: COc1ccc2nccc(Nc3ccc(NC(=O)c4ccc(C)cc4)c(O)c3)c2c1
Ratio: 1.14
//
molecule: COc1cc2ncc(C#N)c(Nc3cccc(Br)c3)c2cc1OC
Ratio: 0.88

Provide Ratio values for the following items, in order.
1. Oc1ccc2ncnc(Nc3ccc(OCc4ccccc4)cc3)c2c1
2. COc1cc2nccc(Nc3cc(OC)c(OC)c(OC)c3)c2cc1OC
3. Oc1ccc2ncnc(Nc3ccc(OCc4ccccc4F)cc3)c2c1

[0.96, 1.26, 0.63]

For every record below, what is its Ratio?
1. C#Cc1cccc(Nc2ccnc3cc(OCCOC)c(OCCOC)cc23)c1
2. Oc1ccc2ncnc(Nc3ccc(OCc4ccc(F)cc4)cc3)c2c1
3. COc1cc2ncnc(Nc3cccc(Br)c3)c2cc1OC

0.88
0.64
0.98

Quick request: Ratio for each listed item, please.
1. Oc1cc2ncnc(Nc3ccc(OCc4ccc(F)cc4)cc3)c2cc1O
2. COc1cc2ncc(C#N)c(Nc3cc(OC)c(OC)c(OC)c3)c2cc1OC
3. COCCOc1cc2ncnc(Nc3cc(OC)c(OC)c(OC)c3)c2cc1OCCOC
4. Oc1ccc2c(Nc3ccc(OCc4ccc(F)cc4)cc3)ncnc2c1

1
1.03
1.02
0.9

###

- System: Mycobacterium tuberculosis
- assayRemarks: Anti-tubercular activity against Mycobacterium tuberculosis H37Rv expressing LuxABCDE assessed as relative luminescence by measuring ratio of RLU (test compound)/RLU(no compound) at 10 uM by luminescence based assay
- Type: functional
reportedProperty: Ratio
Answers are plain numbers.

moleculeSmiles: COc1cc2nccc(Nc3cc(OC)c(OC)c(OC)c3)c2cc1OC
Ratio: 1.11

moleculeSmiles: C#Cc1cccc(Nc2ncnc3cc(OC)c(OC)cc23)c1
Ratio: 0.83

Okay, next one:
Looking up "COc1cc2ncc(C#N)c(Nc3cccc(Br)c3)c2cc1OC" , I found its Ratio recorded as 0.56

###

For each record, write down the corresponding Ratio.
- System: Mycobacterium tuberculosis
- assayRemarks: Anti-tubercular activity against Mycobacterium tuberculosis H37Rv expressing LuxABCDE assessed as relative luminescence by measuring ratio of RLU (test compound)/RLU(no compound) at 5 uM by luminescence based assay
- Type: functional

Known Ratio results, listed for orientation:
moleculeSmiles: COc1cc2nccc(Nc3ccc(OCc4ccc(C)cc4)cc3)c2cc1OC
reportedProperty: Ratio
recordedResult: 0.1
--
moleculeSmiles: Oc1ccc2c(Nc3ccc(OCc4ccccc4)cc3)ncnc2c1
reportedProperty: Ratio
recordedResult: 0.89

Moving on to another compound below.
Just so you know, measured Ratio for "C#Cc1cccc(Nc2ncnc3cc(OC)c(OC)cc23)c1" came out at 0.93

###

- System: Mycobacterium tuberculosis
- assayRemarks: Anti-tubercular activity against Mycobacterium tuberculosis H37Rv expressing LuxABCDE assessed as relative luminescence by measuring ratio of RLU (test compound)/RLU(no compound) at 10 uM by luminescence based assay
- Assay type: functional
reportedProperty: Ratio
Give bare numbers.

Field: example entries. Status: answers known.
moleculeSmiles: Oc1ccc2ncnc(Nc3ccc(OCc4cccc(F)c4)cc3)c2c1
recordedResult: 0.39

moleculeSmiles: COc1cc(Nc2ncnc3ccc(C(F)(F)F)cc23)cc(OC)c1OC
recordedResult: 1.12

# batch size: 4; output Ratio per entry
1. C#Cc1cccc(Nc2c(C#N)cnc3cc(OC)c(OC)cc23)c1
2. COc1cc(Nc2ccnc3ccc(Br)cc23)cc(OC)c1OC
3. Oc1ccc2nccc(Nc3ccc(OCc4ccccc4)cc3)c2c1
4. Oc1ccc2ncnc(Nc3ccc(OCc4ccccc4F)cc3)c2c1

[1.03, 1.41, 0.42, 0.46]

###

- System: Mycobacterium tuberculosis
- assayRemarks: Anti-tubercular activity against Mycobacterium tuberculosis H37Rv expressing LuxABCDE assessed as relative luminescence by measuring ratio of RLU (test compound)/RLU(no compound) at 5 uM by luminescence based assay
- Type: functional
reportedProperty: Ratio
Answers are plain numbers.

Before answering, review these 4 worked examples.
molecule: COc1cc2ncnc(Nc3ccc(OCc4cccc(F)c4)c(Cl)c3)c2cc1OC
experimentalSystem: Mycobacterium tuberculosis
Ratio: 0.92
--
molecule: COc1cc(Nc2ccnc3ccc(Br)cc23)cc(OC)c1OC
experimentalSystem: Mycobacterium tuberculosis
Ratio: 1.35
--
molecule: C#Cc1cccc(Nc2c(C#N)cnc3cc(OC)c(OC)cc23)c1
experimentalSystem: Mycobacterium tuberculosis
Ratio: 1.08
--
molecule: COc1cc(Nc2ccnc3ccc(C(F)(F)F)cc23)cc(OC)c1OC
experimentalSystem: Mycobacterium tuberculosis
Ratio: 1.23

// each listed molecule needs a value for Ratio
1. C#Cc1cccc(Nc2ccnc3cc(OC)c(OC)cc23)c1
2. CS(=O)(=O)CCNCc1ccc(-c2ccc3ncnc(Nc4ccc(OCc5cccc(F)c5)c(Cl)c4)c3c2)o1 [LAPATINIB]
3. COc1cc(Nc2ncnc3ccc(C(F)(F)F)cc23)cc(OC)c1OC

1.02
0.74
1.25

I need Ratio for every entry listed below, if you could help.
1. Oc1ccc2ncnc(Nc3ccc(OCc4cccc(F)c4)cc3)c2c1
2. COc1ccc2ncnc(Nc3ccc(OCc4ccccc4)cc3)c2c1

[0.49, 0.89]
